# K, equilibrium constant per record follows
Assay: Batch adsorption kinetic studies of organic pollutants on P-CDP
Conditions: estimated from the equilibrium efficiency value from the batch kinetic studies
Structures can show the parent of a compound that is named as a salt.

Oc1ccc2ccccc2c1
~30,000^c Mol^−1

input: Suppose we examine the compound Oc1ccc(Cl)cc1Cl ; what K, equilibrium constant value has been reported?
output: ~17,000^c Mol^−1

input: Suppose we examine the compound CCc1cccc(C)c1N(C(=O)CCl)C(C)COC (centres unmarked) ; what K, equilibrium constant value has been reported?
output: ~35,000^c Mol^−1

input: Suppose we examine the compound O=S(=O)(c1ccc(O)cc1)c1ccc(O)cc1 ; what K, equilibrium constant value has been reported?
output: ~17,000^c Mol^−1

input: Suppose we examine the compound CC(C)NCC(O)COc1cccc2ccccc12 (centres unmarked) [propranolol hydrochloride] ; what K, equilibrium constant value has been reported?
output: ~72,000^c Mol^−1
